Origin of the recorded values: PubChem BioAssay (NCI)

test system: HCC-2998 colon; experiment: NCI-60 one-dose screen, 48 h (100 = growth as untreated, 0 = no growth, -100 = all killed); details: 10 µM unless noted
About 83,000 compounds went through this panel and 20% of them were active in at least one assay; those are over-represented in the sample as a whole.

Compound	Units label	growth
COc1cc(-n2nc(C(=O)Nc3ccc(C(=O)O)cc3)nc2-c2ccccc2)cc(OC)c1OC	%	97.9
CC(Br)C(Br)c1cc2c(cc1Br)OCO2 (stereo not given)	%	96
NC(C(=O)O)C(O)c1ccc(OCc2ccccc2)c(OCc2ccccc2)c1 (stereo not given)	%	115
O=C(O)C(Cc1ccccc1)N1C(=O)/C(=C/C(Cl)=C/c2ccc([N+](=O)[O-])cc2)SC1=S (stereo not given)	%	3.58
CCn1cc(C(=O)O)c(=O)c2cc(F)c(N3CCN(S(=O)(=O)c4c(C)cc(C)cc4C)CC3)cc21	%	82.5

###

test system: T-47D breast; assay: NCI-60 one-dose screen, 48 h (100 = growth as untreated, 0 = no growth, -100 = all killed); conditions: 10 µM unless noted
The panel holds about 83,000 compounds, 20% with a hit somewhere; the sample as a whole holds those more often.
Measured property: growth (%)

Molecule	Numeric result
O=c1oc2cc(OS(=O)(=O)c3ccccc3)c(Cl)cc2c2c1CCCCCC2	73.9
COc1ccc(-c2nc(-c3ccccc3)c(-c3ccccc3)n2C2CC2)cc1OC1CCCCC1	58.4
O=C(O)c1ccc(-n2c(=O)c3ccccc3c3ccccc3c2=O)cc1	92.8
CCCCOc1nc2c(C)cccc2cc1C1CNC(=O)c2ccccc2N1 (stereo unspecified)	58.4
CC(=O)Nc1ccc(S(=O)(=O)N2C(=O)CCC2C(=O)Nc2ccccc2)cc1 (stereo unspecified)	17.6
Cc1cc(-c2ccccc2)c(C)n1Cc1ccc(Cl)cc1	50.5

###

Tested on: SNB-75 CNS
Test: NCI-60 one-dose screen, 48 h
Conditions: 10 µM unless noted
Experimental: Growth inhibition of the SNB-75 human tumor cell line is measured as a screen for anti-cancer activity. Cells are grown in 96 well plates and exposed to the test compound for 48 hours. Compounds are tested at a single concentration, which is 10^-5 M for most compounds. The reported endpoint is percent growth (GI% or GIPRCNT), where numbers from 0 - 100% represent growth inhibition, and numbers from -100% - 0 represent cell death. For example, a value of 40 represents 60% growth inhibition. […]
The panel holds about 83,000 compounds, 20% with a hit somewhere; the sample as a whole holds those more often. The source made the active and inactive calls. The calls were made as follows: active = growth percent below 10; inactive = the rest.
Possible outcomes: active, inactive

Compound	Assigned class
COc1cc(CCn2nnc3c(Nc4ccc(N5CCOCC5)cc4)ncnc32)cc(OC)c1	inactive
Cc1ccc(S(=O)(=O)OCC(=O)Nc2ccc(C(=O)O)c(O)c2)cc1	inactive
O=C(c1c[nH]c2ccccc12)C(Sc1nc2ccccc2c(=O)[nH]1)c1ccccc1 (stereo not given)	inactive
COc1cccc(-n2cc(-c3nc(Cl)c4ccccc4n3)nn2)c1	inactive
COc1cccc(/C=C/c2c(C(=O)O)cccc2[N+](=O)[O-])c1OC	inactive
O=S=Nc1ccc([N+](=O)[O-])cc1	inactive
O=S(=O)(NCCCNc1cc(-c2cn(-c3ccccc3)nc2-c2cccc(O)c2)ccn1)c1ccc(Br)cc1	inactive
CC(C)C[C@H](NC(=O)Cn1ccc(NCc2ccccc2)cc1=O)B(O)O	inactive
COc1ccc(/C(=N/O)c2cc(F)c(F)c(OC)c2F)cc1O	active
CCN1C(=S)N(CC)C2Nn3c(s/c(=C4\C(=O)N(C)c5ccccc54)c3=O)=NC21 (stereo not given)	active

###

tested on: SR leukemia; assay: NCI-60 one-dose screen, 48 h; conditions: 10 µM unless noted
This is part of a sample that, as a whole, favours compounds with a hit. Of some 83,000 tested, about 20% had one in any assay. The source made the active and inactive calls. Rule for the calls: active = growth percent below 10; inactive = the rest.
Classes used: active, inactive

Compound	Assigned class
Cc1cccc2cc(/C=C/C(=O)/C=C/c3ccc(Cl)cc3)c(=O)[nH]c12	active
O=C(CCl)NCCNc1nccc(Nc2ccc(S(=O)(=O)Nc3ccccn3)cc2)n1	inactive
CCCCC(N)(C(=O)O)C1CCCC1 (centres undefined)	inactive
CCCS(=O)(=O)c1nc(NC2CC2)cc(-c2ccc3c(ccn3C3CC(C)(C)NC(C)(C)C3)c2)n1	active
COc1cc(-c2csc(NC(=O)Nc3ccc(Cl)cc3Cl)n2)cc(OC)c1OC	inactive
Nc1c(C(=O)Nc2cccc(C(F)(F)F)c2)sc2nc3c(cc12)CCCCCC3	inactive
C#CCN1C(=O)/C(=c2\sc3n(c2=O)C2C(NN=3)N(CC)C(=O)N2CC)c2ccccc21 (centres undefined)	inactive
COc1ccc2c(c1)NC(=O)CN2c1nc(NC2CC2)nc2ccccc12	inactive
O=C1CCCCN1CCCCC#Cc1ccccc1C#Cc1ccc([N+](=O)[O-])cc1	inactive
COc1ccc(Cn2c(SC)nc(=O)n(Cc3ccc(Cl)cc3)c2=O)cc1	inactive
Cc1cc(Nc2nc(-c3ccncc3)nc3ccccc23)n[nH]1	inactive
C=C1C(=O)O[C@H]2[C@H]1CC/C(COC(=O)NCCc1ccc(Br)cc1)=C\CC[C@@]1(C)O[C@@H]21	active
COc1cc(/C=C\c2cc(OC)c(OC)c(OC)c2)cc(N/C=C\C(=O)c2c[nH]c3ccccc23)c1OC	active
CCOC(=O)[C@H](CSSc1ncnc2cc[nH]c12)NC(=O)[C@@H](C)c1ccc2cc(OC)ccc2c1	inactive
CC(Br)C(Br)c1cc2c(cc1Br)OCO2 (centres undefined)	inactive
COc1ccc(C2NC3=C(CCCC3)C(C#N)(C#N)C2(C#N)C#N)cc1 (centres undefined)	active
Cc1ccc2nc(SCn3nnc4ccccc4c3=O)[nH]c2c1	inactive
O=c1oc2cc(OS(=O)(=O)c3ccc(F)cc3)ccc2c2c1CCCCC2	inactive
COc1ccc(/C=C/C(=O)OCC(=O)NNC(=O)c2ccccc2)cc1OC	inactive
CCCCCCCCCCCCNC(=S)N/N=C/c1ccc(Cl)c(Cl)c1	inactive
CC/C=C\C[C@H]1C/C=C2/C(=O)C(Cl)=C[C@@H]2C/C=C\CCCC(=O)O1	active
COc1ccc(NC(=O)c2cc3ccccc3nc2Nc2cc(OC)c(OC)c(OC)c2)cc1	inactive
O=C(/C=C/CN1CCCCC1)Nc1cc2c(Nc3ccc(F)c(Cl)c3F)ncnc2cc1OCCOC(F)F	inactive
COc1ccc2c(c1)NC(=O)CN2c1nc(C)nc2ccccc12	inactive
CCn1cc(C(=O)O)c(=O)c2cc(F)c(N3CCN(S(=O)(=O)c4cccc5ccccc45)CC3)cc21	active
O=S(=O)(NCCCNc1cc(-c2cn(-c3ccccc3)nc2-c2cccc(O)c2)ccn1)c1ccc(Cl)cc1	active
CC(C)(C)c1ccc(S(=O)(=O)Oc2ccc3c4c(c(=O)oc3c2)CCCCC4)cc1	inactive
NC(=O)NC(=O)/C=C/C(=O)OCCCl	inactive
C=C1C(=O)O[C@H]2[C@H]1CC/C(COC(=O)NCc1ccc(OC)cc1)=C\CC[C@@]1(C)O[C@@H]21	active
CC(C)(C)OC(=O)N1C/C(=C\c2cccs2)C(=O)/C(=C/c2cccs2)C1	inactive
Nc1c(C(=O)Nc2c(Cl)cccc2Cl)sc2nc3c(cc12)CCCCC3	inactive
COc1ccc(/C=C2\C(=O)N(C(=O)c3csc(NC(C)=O)n3)N=C2C)cc1	inactive
CCOC(=O)C1=C(C)NC(=O)NC1c1ccc(OCC(=O)N/N=C/c2ccc(Cl)cc2)cc1 (centres undefined)	inactive
COc1ccc(/C=C\c2cc(OC)c(OC)c(OC)c2)c(NS(=O)(=O)c2ccc(C(C)(C)C)cc2)c1O	inactive
COc1ccc(C(=O)c2cc(OC)c(OC)c(OC)c2)cc1/C=C/C(=O)c1ccc(OC)c(OC)c1	active
COC(=O)CC/C(C)=N\Nc1ccc([N+](=O)[O-])cc1	inactive
CCCCCCCCCCC/C=C\C[C@H](O)C/C=C1/C(=O)C=C[C@@H]1C/C=C\CCCC(=O)OC	active
COc1ccc(OC)c(/C=C2\Oc3cc(OCCN4CCCC4)ccc3C2=O)c1	inactive
CC(C)CCC[C@@H](C)[C@H]1CC[C@H]2[C@@H]3CC[C@H]4C/C(=N/O)CC[C@]4(C)[C@H]3CC[C@]12C	inactive

###

tested on: SK-MEL-5 melanoma; assay: NCI-60 one-dose screen, 48 h; settings: 10 µM unless noted
Compounds without any hit were thinned out: in the full panel of roughly 83,000, 20% have a hit. Active and inactive are the calls of the source. Rule for the calls: active = growth percent below 10; inactive = the rest.
Classes used: label 1 (active), label 0 (inactive)

Compound	Assigned class
CCCCCC/C=C\CCCCCCCCOc1ccc(CCOP(=O)(O)OCC[N+](C)(C)C)cc1	label 0
CS(=O)(=O)N(c1cc(-c2ccc3ncnc(Nc4cccc(Cl)c4)c3c2)cnc1Cl)S(C)(=O)=O	label 1
CN(C)c1ccc(C2CC(c3ccccc3)=NN2/C=C2\SC(=O)NC2=O)cc1 (stereo not given)	label 0
O=C(Nc1cccc(C(F)(F)F)c1)Nc1ccc(OCc2nnc(-c3ccccc3)o2)c(F)c1	label 0
O=C1CCCCN1CCCCC#Cc1ccccc1C#Cc1ccc([N+](=O)[O-])cc1	label 1
